# ASSAYED_TARGET: T1, recombinant human HER2 extracellular domain protein (human, UniProt P04626 23-652)
# T1 construct: range 23-652; Range is printed for the immunogen/panning protein; also called ErbB2; recombinant HER2 protein
# PROCEDURE_DETAILS: BLI, Protein A capture
READOUT_TYPE: kon (M⁻¹ s⁻¹)
Write the value in M⁻¹ s⁻¹ as a bare number.

- BINDER: "2126-Hu-H56 (antibody, IgG1, name in Kabat numbering, V domains shown, IgG1/Cκ) VH: QVQLVQSGSELKKPGASVKVSCKASGYTFTDYSMHWVRQAPGQGLEWMGWINTETGEPTYADDFKGRFVFSLDTSVSTAYLQISSLKAEDTAVYFCVRVGRYEYAMDYWGQGTTVTVSS VL: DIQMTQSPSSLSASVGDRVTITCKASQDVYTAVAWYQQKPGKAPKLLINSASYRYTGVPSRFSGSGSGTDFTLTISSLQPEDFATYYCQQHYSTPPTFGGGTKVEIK"
  READOUT_TYPE: "kon"
  ASSAY_RESULT: 131000

For record 2126-Hu-H22 (antibody, IgG1, V domains shown, IgG1/Cκ) VH: QVQLVQSGGELKKPGASVKVSCKASGYTFTDYSMHWVRQAPGQGLEWMGWINTETGEPTYADDFKGRFVFSLDTSVSTAYLQISSLKAEDTAVYFCVRVGRYDYAMDYWGQGTTVTVSS VL: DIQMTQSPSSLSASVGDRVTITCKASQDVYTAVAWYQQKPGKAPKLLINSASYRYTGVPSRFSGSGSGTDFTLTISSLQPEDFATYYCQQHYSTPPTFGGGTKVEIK the listed kon is 101000

Measured kon of 2126-Hu-H25 (antibody, IgG1, V domains shown, IgG1/Cκ) VH: QVQLVQSGSELKKPGASVKVSCKASGYTFTDYSMHWVRQAPGQGLEWMGWINTNTGEPTYADDFKGRFVFSLDTSVSTAYLQISSLKAEDTAVYFCVRVGRYDYAMDYWGQGTTVTVSS VL: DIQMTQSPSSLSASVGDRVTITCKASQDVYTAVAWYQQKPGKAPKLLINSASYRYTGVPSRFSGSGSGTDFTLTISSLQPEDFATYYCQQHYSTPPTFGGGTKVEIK : 99000

// field: kon; key: 2126-Hu-H29 (antibody, IgG1, V domains shown, IgG1/Cκ) VH: QVQLVQSGSELKKPGASVKVSCKASGYTFTDYSMHWVRQAPGQGLEWMGWINTITGEPTYADDFKGRFVFSLDTSVSTAYLQISSLKAEDTAVYFCVRVGRYDYAMDYWGQGTTVTVSS VL: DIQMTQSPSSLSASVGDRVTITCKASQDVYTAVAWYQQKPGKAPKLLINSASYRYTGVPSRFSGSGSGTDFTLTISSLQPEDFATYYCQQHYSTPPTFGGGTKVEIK ; value = 94300

Form field kon, entry 2126-Hu-H58 (antibody, IgG1, name in Kabat numbering, V domains shown, IgG1/Cκ) VH: QVQLVQSGSELKKPGASVKVSCKASGYTFTDYSMHWVRQAPGQGLEWMGWINTETGEPTYADDFKGRFVFSLDTSVSTAYLQISSLKAEDTAVYFCVRVGRYQYAMDYWGQGTTVTVSS VL: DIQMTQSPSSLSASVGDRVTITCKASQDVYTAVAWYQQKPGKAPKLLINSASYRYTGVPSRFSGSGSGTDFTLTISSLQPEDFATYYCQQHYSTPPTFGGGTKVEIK : 155000
